Entries and their viability, T/C values follow.
tested on: 362531-283-R-J2-PDC complex spheroid viability; assay: Anticancer human tumor 362531-283-R-J2-PDC patient-derived colon adenocarcinoma cell line growth inhibition [RAS]; conditions: second compound 0.316 µM; first compound 0.01 µM; hits give low values;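 further: spheroids exposed to the agents for 7 days before readout; luminescence viability as percent of DMSO vehicle control wells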
Please reply with the bare figure in % and do not write the unit itself.

Would you please look over these solved cases?
- Molecule: "CC(C)n1nc(-c2ccc3oc(N)nc3c2)c2c(N)ncnc21 + C=CC(=O)N1CCN(c2nc(OCC3CCCN3C)nc3c(F)c(-c4nc(N)cc(C)c4C(F)(F)F)c(Cl)cc23)C(C)C1"
  System Tested: "362531-283-R-J2-PDC complex spheroid viability"
  viability, T/C [%]: 106
- Molecule: "O=C(c1ccc(F)c(F)c1Nc1ccc(I)cc1F)N1CC(O)([C@@H]2CCCCN2)C1 + C#Cc1c(F)ccc2cc(O)cc(-c3ncc4c(N5CC6CCC(C5)N6)nc(OCC56CCCN5CC(F)C6)nc4c3F)c12"
  System Tested: "362531-283-R-J2-PDC complex spheroid viability"
  viability, T/C [%]: 88.1
- Molecule: "C=CC(=O)Nc1cc(Nc2nccc(-c3cn(C)c4ccccc34)n2)c(OC)cc1N(C)CCN(C)C + C=CC(=O)N1CCN(c2nc(OCC3CCCN3C)nc3c(F)c(-c4nc(N)cc(C)c4C(F)(F)F)c(Cl)cc23)C(C)C1"
  System Tested: "362531-283-R-J2-PDC complex spheroid viability"
  viability, T/C [%]: 96
- Molecule: "C=CC(=O)Nc1cc(Nc2nccc(-c3cn(C)c4ccccc34)n2)c(OC)cc1N(C)CCN(C)C + C#Cc1c(F)ccc2cc(O)cc(-c3ncc4c(N5CC6CCC(C5)N6)nc(OCC56CCCN5CC(F)C6)nc4c3F)c12"
  System Tested: "362531-283-R-J2-PDC complex spheroid viability"
  viability, T/C [%]: 94.4
- Molecule: "CC(C)n1nc(-c2ccc3oc(N)nc3c2)c2c(N)ncnc21 + C#Cc1c(F)ccc2cc(O)cc(-c3ncc4c(N5CC6CCC(C5)N6)nc(OCC56CCCN5CC(F)C6)nc4c3F)c12"
  System Tested: "362531-283-R-J2-PDC complex spheroid viability"
  viability, T/C [%]: 62.5

Ask: Name the reported viability, T/C value associated with the molecule O=C(c1ccc(F)c(F)c1Nc1ccc(I)cc1F)N1CC(O)([C@@H]2CCCCN2)C1 + C=CC(=O)N1CCN(c2nc(OCC3CCCN3C)nc3c(F)c(-c4nc(N)cc(C)c4C(F)(F)F)c(Cl)cc23)C(C)C1
Reply: 97.6

Ask: And then C=CC(=O)N1CCN(c2nc(OCC3CCCN3C)nc3c(F)c(-c4nc(N)cc(C)c4C(F)(F)F)c(Cl)cc23)C(C)C1 (stereo unspecified) + C#Cc1c(F)ccc2cc(O)cc(-c3ncc4c(N5CC6CCC(C5)N6)nc(OCC56CCCN5CC(F)C6)nc4c3F)c12 , what is it?
Reply: 78.6

Ask: And then Nc1ccn(C2OC(CO)C(O)C2(F)F)c(=O)n1 (stereo unspecified) + C=CC(=O)N1CCN(c2nc(OCC3CCCN3C)nc3c(F)c(-c4nc(N)cc(C)c4C(F)(F)F)c(Cl)cc23)C(C)C1 , what is it?
Reply: 97.1

Ask: And then CCN1CCN(Cc2ccc(Nc3ncc(F)c(-c4cc(F)c5nc(C)n(C(C)C)c5c4)n3)nc2)CC1 + C=CC(=O)N1CCN(c2nc(OCC3CCCN3C)nc3c(F)c(-c4nc(N)cc(C)c4C(F)(F)F)c(Cl)cc23)C(C)C1 , what is it?
Reply: 94.8

Ask: And then Nc1ccn(C2OC(CO)C(O)C2(F)F)c(=O)n1 (stereo unspecified) + C#Cc1c(F)ccc2cc(O)cc(-c3ncc4c(N5CC6CCC(C5)N6)nc(OCC56CCCN5CC(F)C6)nc4c3F)c12 , what is it?
Reply: 92.4

Ask: And then CCN1CCN(Cc2ccc(Nc3ncc(F)c(-c4cc(F)c5nc(C)n(C(C)C)c5c4)n3)nc2)CC1 + C#Cc1c(F)ccc2cc(O)cc(-c3ncc4c(N5CC6CCC(C5)N6)nc(OCC56CCCN5CC(F)C6)nc4c3F)c12 , what is it?
Reply: 89.2
